Biological target: T1, human CNTN4 antigen expressed on the cell membrane of 293FT cells (human, UniProt Q8IWV2 19-1000)
T1 construct: whole, on cells; also called Human CNTN4 transfected cell
T1 sequence (looked up): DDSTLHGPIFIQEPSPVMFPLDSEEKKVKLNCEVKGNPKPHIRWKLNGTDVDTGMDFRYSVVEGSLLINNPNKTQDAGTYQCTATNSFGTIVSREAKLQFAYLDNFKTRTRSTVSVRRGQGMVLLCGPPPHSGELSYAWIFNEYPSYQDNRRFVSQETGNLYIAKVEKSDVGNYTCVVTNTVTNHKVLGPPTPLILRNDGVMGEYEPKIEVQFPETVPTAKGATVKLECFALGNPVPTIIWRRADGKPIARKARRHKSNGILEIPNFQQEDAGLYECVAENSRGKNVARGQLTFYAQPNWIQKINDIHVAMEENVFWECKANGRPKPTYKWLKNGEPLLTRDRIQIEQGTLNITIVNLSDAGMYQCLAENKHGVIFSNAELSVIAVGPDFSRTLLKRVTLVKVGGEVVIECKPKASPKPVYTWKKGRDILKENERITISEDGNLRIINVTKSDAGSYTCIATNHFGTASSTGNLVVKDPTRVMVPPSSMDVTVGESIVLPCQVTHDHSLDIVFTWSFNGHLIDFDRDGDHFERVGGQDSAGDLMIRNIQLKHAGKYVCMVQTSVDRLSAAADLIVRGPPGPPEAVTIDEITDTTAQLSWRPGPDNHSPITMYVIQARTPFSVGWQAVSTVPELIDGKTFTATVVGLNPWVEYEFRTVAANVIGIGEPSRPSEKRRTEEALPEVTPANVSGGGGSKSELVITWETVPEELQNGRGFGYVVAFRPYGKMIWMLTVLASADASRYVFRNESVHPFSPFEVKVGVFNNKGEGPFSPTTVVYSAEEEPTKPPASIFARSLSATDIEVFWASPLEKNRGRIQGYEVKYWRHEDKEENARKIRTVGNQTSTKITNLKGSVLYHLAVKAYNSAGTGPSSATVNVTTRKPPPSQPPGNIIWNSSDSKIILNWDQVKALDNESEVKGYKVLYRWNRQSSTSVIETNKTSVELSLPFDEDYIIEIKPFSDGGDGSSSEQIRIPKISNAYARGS
Assay: FACS, 293FT cells transfected with human CNTN4, 40 ug/mL, anti-hFc-PE
Form field: Shift % (one value per entry).
Express your answer in %, writing the number without its unit.

Illustrative cases are given below, each with its answer.
INSERT INTO assay_data (binder, readout_number) VALUES
  ('anti-CNTN4 IgG A13SF16 (antibody, V domains shown, human IgG4 (S228P)) VH: AVTLDESGGGLQTPGGGLSLVCKASGFTFSSYGMAWVRQAPGKGLEWVAGITSSGSSAGYGPAVKGRATISRDNGQSTVRLQLNNLRAEDTATYYCAKDGYIYSGADSDSIDAWGHGTEVIVSS VL: ALTQPSSVSANLGGTVKITCSGSGGSYGWFQQKSPGSAPVTLIYNNDNRPSDIPSRFSGSKSGSTATLTITGVQAEDEAVYFCGGYDSSTYVDTFGAGTTLTVL', 84.8),
  ('anti-CNTN4 IgG A13WB4 (antibody, V domains shown, human IgG4 (S228P)) VH: AVTLDESGGGLHTPGGALSLVCKASGFTFSSYGMAWVRQAPGKGLEWVAGITSSGSSAGYGPAVKGRATISRDNGQSTVRLQLNNLRAEDTATYYCAKDGYIYSGADSDSIDAWGHGTEVIVSS VL: ALTQPSSVSANPGETVEITCSGGSSDYGYGWYQQKSPGSAPVTVIYYNNNRPSDIPSRFSGSLSGSTNTLTITGVQADDEAVYFCGSRDSSSGYVDIFGAGTTLTVL', 84.7),
  ('anti-CNTN4 IgG A35WB27 (antibody, V domains shown, human IgG4 (S228P)) VH: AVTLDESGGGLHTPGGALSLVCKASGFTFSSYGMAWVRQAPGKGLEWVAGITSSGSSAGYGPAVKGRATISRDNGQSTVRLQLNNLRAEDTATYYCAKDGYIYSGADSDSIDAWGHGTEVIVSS VL: ALTQPSSVSANLGETVKITCSGGYSGYGWYQQKSPGSAPVTVIYYNDKRPSDIPSRFSGSKSGSTGTLTITGVRAEDEAVYFCGSADSSTGYVAIFGAGTTLTVL', 88.2),
  ('anti-CNTN4 IgG A35SF90 (antibody, V domains shown, human IgG4 (S228P)) VH: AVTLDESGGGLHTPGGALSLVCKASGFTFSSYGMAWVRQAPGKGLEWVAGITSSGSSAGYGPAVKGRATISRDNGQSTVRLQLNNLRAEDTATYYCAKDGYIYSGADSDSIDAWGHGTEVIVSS VL: ALTQPSSVSANLGGTVEITCSGSNNNNYGWYQQKTPGSAPVTLIYNNNQRPSDIPSRFSGSKSGSTGTLTITGVRAEDEAVYYCGGYDSSIYFDIFGAGTTLTVL', 82.8);

Which Shift % is listed for anti-CNTN4 IgG A35SF8 (antibody, V domains shown, human IgG4 (S228P)) VH: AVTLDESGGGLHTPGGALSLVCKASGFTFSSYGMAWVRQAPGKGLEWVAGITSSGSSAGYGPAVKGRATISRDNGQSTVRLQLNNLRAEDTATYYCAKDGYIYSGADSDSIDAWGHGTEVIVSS VL: ALTQPSSVSANLGGTVKITCSGGGGSYGWFQQKSPGSAPVTLIYNNNNRPSDIPSRFSGSKSGSTATLTITGVQAEDEAVYFCGGYDDSTYVGMFGAGTTLTVL ?
80.4
